- target.system: Metabotropic glutamate receptor 5 (Homo sapiens)
- Sequence (P41594 whole entry): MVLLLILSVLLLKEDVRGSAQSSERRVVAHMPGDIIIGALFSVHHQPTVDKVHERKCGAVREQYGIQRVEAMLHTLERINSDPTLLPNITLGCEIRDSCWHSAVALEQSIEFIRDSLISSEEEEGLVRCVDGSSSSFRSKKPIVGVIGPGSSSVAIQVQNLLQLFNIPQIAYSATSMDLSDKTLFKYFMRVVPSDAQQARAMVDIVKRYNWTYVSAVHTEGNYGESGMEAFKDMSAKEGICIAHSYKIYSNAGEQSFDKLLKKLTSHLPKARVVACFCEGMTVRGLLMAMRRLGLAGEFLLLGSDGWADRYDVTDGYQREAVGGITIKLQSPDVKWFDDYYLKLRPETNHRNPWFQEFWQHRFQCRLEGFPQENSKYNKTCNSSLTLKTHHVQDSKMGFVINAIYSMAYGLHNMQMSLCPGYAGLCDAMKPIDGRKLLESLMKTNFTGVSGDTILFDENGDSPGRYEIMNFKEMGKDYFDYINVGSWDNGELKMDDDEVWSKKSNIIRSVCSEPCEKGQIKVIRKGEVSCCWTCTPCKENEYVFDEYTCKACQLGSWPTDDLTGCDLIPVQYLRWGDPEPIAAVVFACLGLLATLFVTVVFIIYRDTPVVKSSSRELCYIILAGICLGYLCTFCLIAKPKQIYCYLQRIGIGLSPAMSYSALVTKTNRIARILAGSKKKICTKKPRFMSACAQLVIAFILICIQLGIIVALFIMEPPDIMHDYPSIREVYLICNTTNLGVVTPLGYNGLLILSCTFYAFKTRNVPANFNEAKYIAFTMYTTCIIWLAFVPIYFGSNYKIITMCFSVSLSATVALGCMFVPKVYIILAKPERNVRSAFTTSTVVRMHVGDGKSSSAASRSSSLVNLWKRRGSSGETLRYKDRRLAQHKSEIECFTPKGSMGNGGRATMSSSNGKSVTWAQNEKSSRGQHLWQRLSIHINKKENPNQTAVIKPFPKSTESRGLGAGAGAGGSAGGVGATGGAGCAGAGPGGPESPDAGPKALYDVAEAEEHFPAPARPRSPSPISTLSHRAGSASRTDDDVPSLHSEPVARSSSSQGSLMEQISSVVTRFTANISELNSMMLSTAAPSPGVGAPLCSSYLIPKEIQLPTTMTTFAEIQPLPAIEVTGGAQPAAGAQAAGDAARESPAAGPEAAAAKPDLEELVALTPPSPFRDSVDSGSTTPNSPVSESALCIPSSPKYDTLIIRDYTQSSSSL
- method.description: Positive allosteric modulation of human mGlu5 receptor expressed in HEK293 cells assessed as potentiation of L-glutamate-induced activity after 1 hr by FLIPR assay
- Type: cell-based
pEC50: −log10 of the molar value.
metric: pEC50

> print(dat)
                                   compound  observed
1  O=C(C1CCOC1)N1CCc2nc(C#Cc3ccccc3)sc2C1 (stereo not drawn)      6.89
2      O=C(C1CC1)N1CCc2nc(C#Cc3ccccc3)sc2C1    < 5.00
3  O=S(=O)(N1CCCC1)N1CCc2nc(C#Cc3ccccc3)sc2C1    < 5.00
